# System: P. falciparum stage V gametocytes
# Parameters: BacTiter-Glo ATP luminescence viability of purified stage V gametocytes in 384-well plates, per cent inhibition versus DMSO
# TEST PARAMETERS: 48 h, 5 µM; inhibitor
In all, about 13,000 compounds went through this assay and about 3,200 (25%) showed an effect of 50% or more. The list shows a part of the results.
MEASURED PARAMETER: % Inhibition (%)
Please state the figure in %; there is no need to write the unit.

1) Cc1ccc(Nc2nc(C)cc(Nc3cccc(NS(C)(=O)=O)c3)n2)cc1
22.69

Could you tell me which % Inhibition is on file for O=C(Nc1ccc2c(c1)CCC2)c1ccc(N2CCN(c3ccncc3)CC2)cn1 ?
0.5792

Try CCN=C1NC2=C(CC(C(C)(C)C)CC2)C2(CCC(C(C)(C)C)CC2)S1 (centres unmarked) next.
95.02

---

Listing of recorded % Inhibition by entry.
# Tested on: P. falciparum stage V gametocytes
# Parameters: BacTiter-Glo ATP luminescence viability of purified stage V gametocytes in 384-well plates, per cent inhibition versus DMSO
# TEST PARAMETERS: 48 h, 5 µM; inhibitor
Hit rate of the full screen: of about 13,000 compounds, about 3,200 (25%) showed an effect of 50% or more. The list shows a part of the results.
Please state the figure in %; there is no need to write the unit.

Could you tell me which % Inhibition is on file for CCNC(=O)Nc1cccc(-c2cccc(-c3nc4c(C)cccc4[nH]3)c2)c1 [TCMDC-133172] ?
-6.099

Try COc1ccc2nccc([C@@H](O)CN3CCC(NC(=O)c4ccc5nc(-n6cccc6)sc5c4)CC3)c2c1 [TCMDC-141027] next.
-24.62

Try O=C(c1ccc(-c2ccccn2)s1)N1CCc2cc3nccc(N4CCN5CCC[C@H]5C4)c3cc21 [TCMDC-140047] next.
34.48

Try S=C(Nc1cccc(Cl)c1)NC1CCN(c2ccnc3cc(Cl)ccc23)C1 (stereo not shown) [TCMDC-133400] next.
41.6

Try O=[N+]([O-])c1ccc(Nc2nc(N/N=C/c3cc(Cl)cc(Cl)c3O)nc(Nc3ccccc3)n2)cc1 [TCMDC-123854] next.
16.66

Try COc1cc(CNC[C@@H](O)[C@H](Cc2ccccc2)NC(=O)c2cc(C3CCCC3)cc(N3CCCS3(=O)=O)c2)cc(OC)c1 [TCMDC-134560] next.
26.15

Try COc1cccc(CNC(=O)c2ccnc(-c3cccc(CN(C)C4CCN(C)CC4)c3)c2)c1 [TCMDC-134500] next.
23.23

---

Listing of recorded % Inhibition by entry.
# Test system: P. falciparum stage V gametocytes
# Design: BacTiter-Glo ATP luminescence viability of purified stage V gametocytes in 384-well plates, per cent inhibition versus DMSO
# TEST PARAMETERS: 48 h, 5 µM; inhibitor
About 3,200 (25%) of roughly 13,000 compounds showed an effect of 50% or more. This is one part of the list.
Please state the figure in %; there is no need to write the unit.

1) CN1CCN(Cc2cccc(-c3ccc4c(Nc5ccc(F)cc5Cl)ccnc4c3)c2)CC1
75.62
2) CS(=O)(=O)CCNCc1cccc(-c2ccc3c(Nc4cc(O)c(Cl)cc4F)ccnc3c2)c1
-21.48
3) Oc1ccccc1CNCC(O)c1cc(C(F)(F)F)cc(C(F)(F)F)c1 (centres unmarked)
-68.09
4) CN(C)CCNCc1ncsc1-c1ccc2c(Nc3ccc(F)cc3Cl)ccnc2c1
30.52

Could you tell me which % Inhibition is on file for CN(C)CCNCc1cccc(-c2ccc3c(Nc4cc(O)c(Cl)cc4F)ccnc3c2)c1 ?
57.17

Try Cc1cccc(Nc2nccc(NCC(O)c3ccc(C(F)(F)F)cc3)n2)c1 (centres unmarked) next.
-12.82

Try Cc1cc(C(=O)Nc2ccc3c(c2)CCN3C2CCN(Cc3cccc(F)c3F)C2)no1 (centres unmarked) next.
-28.63

Try O=C(Nc1ccc(-c2nc3ccccc3[nH]2)cc1)c1cncc(Br)c1 next.
2.548

Every entry's value here was drawn from paper PMC4552634.
